- Tested on: U2OS
- ASSAY PROCEDURE: Incucyte cell viability with U2OS; further: filed as whole numbers so only -1 and 0 and 1 occur
- Type: toxicity, cell-based
- REPORTED CONDITIONS: human, 24 h, 10 µM, compound concentration 10 uM, replicate number 2, timepoint 24 hours
MEASURED METRIC: Growth Rate
Form: value (number only, do not type unit).

get_value(item= CCCn1c(=O)c2[nH]c(-c3cnn(Cc4cccc(C(F)(F)F)c4)c3)nc2n(CC)c1=O , readout=Growth Rate) returns 0

For this molecule ( Cc1nc(NC(=O)N2CCC[C@H]2C(N)=O)sc1-c1ccnc(C(C)(C)C(F)(F)F)c1 ), measured Growth Rate is 1

For reference, reported Growth Rate for NC(=O)c1cccc(-c2cc(Nc3ccc(OC(F)(F)F)cc3)ncn2)c1 stands at 0

What the record says about Cl.Oc1ccc2c3c1O[C@H]1c4[nH]c5c(c4C[C@@]4(O)[C@@H](C2)N(CC2CC2)CC[C@]314)C[C@@]1(O)[C@H]2Cc3ccc(O)c4c3[C@@]1(CCN2CC1CC1)[C@H]5O4 : Growth Rate is 0

Sample CN(C)[C@H]1CCN(c2cc(-c3ccccc3)nc3ccnn23)C1 [(S)-ZINC-3573] ; Growth Rate observed: 1

Briefly, Growth Rate measured for CN(C)C(=O)c1cc2cnc(Nc3ccc(N4CCNCC4)cn3)nc2n1C1CCCC1 : 1

Recorded Growth Rate (molecule Cn1nc(C(F)(F)F)cc1-c1cnc(N2CCc3cc(S(=O)(=O)Nc4c(F)cc(Cl)cc4F)cc(N4CCCC4=O)c32)nc1 ): 0

Per the record, COc1cc(OC)cc(-c2noc(N3CCN(C)C4(CCN(c5ccnc(C)c5)CC4)C3)n2)c1 has Growth Rate of 1

Summary for this molecule, CC(C)OC(=O)C1=CN(C(=O)c2ccc(F)c(F)c2)CC(C)(C)c2c1[nH]c1ccccc21 [TUROFEXORATE ISOPROPYL] : Growth Rate is 1

molecule CO[C@H]1CC[C@H](CNc2ccc(S(=O)(=O)NC(=O)c3ccc(N4CCN(CC5=C(c6ccc(Cl)cc6)CC(C)(C)CC5)CC4)cc3Oc3cnc4[nH]ccc4c3)cc2[N+](=O)[O-])CC1 , Growth Rate observed: 1

For O=C1NC(c2ccccn2)Sc2ccccc21 (centres undefined) the molecule record lists Growth Rate as 1

The reported value for CN1CCN(C(=O)C(C)(C)c2ccc(C(=O)Nc3cn4cc(-c5cc(C(C)(C)C)cc(C(C)(C)C)c5)ccc4n3)cc2)CC1 in terms of Growth Rate is 1

Consider NS(=O)(=O)c1c(Cl)ccc(NC(=O)Nc2cccc(Cl)c2Cl)c1O . Its measured Growth Rate is 0

Lab note: O=C(NS(=O)(=O)c1ccc(NCC2CCOCC2)c([N+](=O)[O-])c1)c1ccc(N2CCN(Cc3ccc(C(F)(F)F)cc3-c3ccc(Cl)cc3)CC2)cc1Oc1cnc2[nH]ccc2c1 gave Growth Rate of 0

The molecule listed as O=C(Nc1cccnn1)N1CC(C/C=C/c2cncc(Oc3ccc(C(F)(F)F)cn3)n2)C1 has a reported Growth Rate of 0

Measured Growth Rate, CN1CCN(C(=O)C(C)(C)c2ccc(C(=O)Nc3cn4cc(-c5ccncc5)ccc4n3)cc2)CC1 : 1

The value of Growth Rate measured for the molecule CCC(=N\O)/C(C)=C/c1ccc(F)c(C)c1 turned out to be 1

Growth Rate recorded for this molecule, CO[C@@H](C)c1c(Nc2ccc([C@@H](N(C)C(=O)C3CCS(=O)(=O)CC3)C(F)(F)F)cc2)cnc2cc(Cl)nn12 , is 0

// sample Cc1ccc(-c2cnc([C@@]3(O)CC[C@H](C(=O)O)C(C)(C)C3)s2)cc1Nc1cccc(C(F)(F)F)n1 , its Growth Rate was 1

Sample O=C1O[C@]2(CC[C@H](C(=O)Nc3ccn(-c4ccccc4F)n3)CC2)c2cnccc21 ; Growth Rate observed: 1

response.value for OCCn1cc(-c2cnc3nnn(Cc4ccc5ncccc5c4)c3n2)cn1 (field: Growth Rate) = 0

Entry O=C1N/C(=N/c2ccccc2F)S/C1=C\c1ccc(C(=O)O)cc1 — recorded Growth Rate = 0

Reported Growth Rate ( CN1CCN(c2cnc3c(C4CCN(C(=O)c5ccc(OC(F)(F)F)cc5N)CC4)ncnc3c2)CC1 ) = 1

Reported Growth Rate of Cc1nc(-c2ccc(C(F)(F)F)cc2)sc1COc1ccc([C@H](CC(=O)O)c2ccon2)cc1 : 1
